- Tested on: Staphylococcus epidermidis
- methodDescription: In vitro antibacterial activity against Staphylococcus epidermidis A25441 was determined
- Type: functional
propertyName: MIC (µg/mL)

Example entries begin here.
GET /values?readout=MIC&item= COC1C(OC(=O)c2ccco2)C(O)C(Oc2ccc3c(O)c(NC(=O)c4ccccc4)c(=O)oc3c2C)OC1(C)C (stereo unspecified)
8

Value lookup for MIC; key = COC1C(OC(=O)c2[nH]cnc2C)C(O)C(Oc2ccc3c(O)c(NC(=O)c4ccccc4)c(=O)oc3c2C)OC1(C)C.Cc1ccc(S(=O)(=O)O)cc1 (stereo unspecified)
8

What value of MIC has been reported for the following compound? COC1C(OC(=O)c2ccc(C)s2)C(O)C(Oc2ccc3c(O)c(NC(=O)c4ccccc4)c(=O)oc3c2C)OC1(C)C (stereo unspecified)
8

1: COC1C(OC(=O)c2cccn2C)C(O)C(Oc2ccc3c(O)c(NC(=O)c4ccccc4)c(=O)oc3c2C)OC1(C)C (stereo unspecified)
2: COC1C(OC(=O)c2ccc(C)[nH]2)C(O)C(Oc2ccc3c(O)c(NC(=O)c4ccccc4)c(=O)oc3c2C)OC1(C)C (stereo unspecified)
3: COC1C(OC(=O)c2c(C)ncn2Cc2ccccc2)C(O)C(Oc2ccc3c(O)c(NC(=O)c4ccccc4)c(=O)oc3c2C)OC1(C)C (stereo unspecified)
Falling order of MIC, please. In your reply, arrange the labels in the requested order.
1, 3, 2
(1: 8 µg/mL, 3: 2 µg/mL, 2: 0.13 µg/mL)
